- assayed-target: T1, Human IL2Rγ extracellular domain expressed with a C-terminal mouse IgG2a Fc tag (human)
- T1 construct: whole entry is the Fc-fused construct; also called hIL-2Rg-mFc
- T1 chain: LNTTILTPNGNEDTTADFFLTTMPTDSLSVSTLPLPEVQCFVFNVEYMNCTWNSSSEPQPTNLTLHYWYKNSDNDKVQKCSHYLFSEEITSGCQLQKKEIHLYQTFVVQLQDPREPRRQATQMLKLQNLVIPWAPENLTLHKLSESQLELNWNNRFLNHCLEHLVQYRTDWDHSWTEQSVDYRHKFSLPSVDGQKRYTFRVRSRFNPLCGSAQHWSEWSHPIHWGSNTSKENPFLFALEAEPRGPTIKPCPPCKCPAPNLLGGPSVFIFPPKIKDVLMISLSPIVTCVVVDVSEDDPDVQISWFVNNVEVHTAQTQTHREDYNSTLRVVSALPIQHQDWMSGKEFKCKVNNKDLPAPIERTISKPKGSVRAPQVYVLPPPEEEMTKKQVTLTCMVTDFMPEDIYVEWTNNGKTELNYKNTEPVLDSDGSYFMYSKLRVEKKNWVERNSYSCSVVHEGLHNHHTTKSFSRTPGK
- assay-protocol: SPR Biacore 4000, anti-hFc-captured mAb, 37 C
Reported log10 t1/2 values are given for each entry in this list.
value-type: log10 t1/2 (log10 of the value in min)

- H4H12886P (antibody, human IgG4 S228P, kappa, V domains shown, fully human anti-IL2Rgamma mAb, human IgG4 Fc) VH: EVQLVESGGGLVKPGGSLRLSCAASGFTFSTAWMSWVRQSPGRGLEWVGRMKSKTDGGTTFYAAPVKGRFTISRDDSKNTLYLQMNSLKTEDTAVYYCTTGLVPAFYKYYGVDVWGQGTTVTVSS VL: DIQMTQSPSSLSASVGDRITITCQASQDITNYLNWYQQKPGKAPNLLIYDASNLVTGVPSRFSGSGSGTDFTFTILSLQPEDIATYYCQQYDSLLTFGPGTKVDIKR: 2.10
- H4H13541P (antibody, human IgG4 S228P, kappa, V domains shown, fully human anti-IL2Rgamma mAb, human IgG4 Fc) VH: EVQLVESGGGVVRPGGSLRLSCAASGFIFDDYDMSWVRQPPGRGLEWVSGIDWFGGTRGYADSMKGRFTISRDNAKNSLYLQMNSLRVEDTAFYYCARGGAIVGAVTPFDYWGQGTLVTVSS VL: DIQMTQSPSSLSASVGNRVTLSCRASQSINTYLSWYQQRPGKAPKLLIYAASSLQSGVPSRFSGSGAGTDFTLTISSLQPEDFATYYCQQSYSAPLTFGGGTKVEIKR: 1.97
- H4H12884P (antibody, human IgG4 S228P, kappa, V domains shown, fully human anti-IL2Rgamma mAb, human IgG4 Fc) VH: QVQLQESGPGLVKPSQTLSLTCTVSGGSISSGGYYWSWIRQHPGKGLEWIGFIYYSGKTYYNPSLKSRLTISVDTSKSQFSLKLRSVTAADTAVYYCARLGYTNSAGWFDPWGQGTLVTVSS VL: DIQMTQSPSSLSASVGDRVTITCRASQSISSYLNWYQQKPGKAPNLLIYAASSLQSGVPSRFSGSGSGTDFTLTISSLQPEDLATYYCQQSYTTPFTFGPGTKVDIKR: 2.63
- H4H12858P (antibody, human IgG4 S228P, kappa, V domains shown, fully human anti-IL2Rgamma mAb, human IgG4 Fc; also called REGN9433) VH: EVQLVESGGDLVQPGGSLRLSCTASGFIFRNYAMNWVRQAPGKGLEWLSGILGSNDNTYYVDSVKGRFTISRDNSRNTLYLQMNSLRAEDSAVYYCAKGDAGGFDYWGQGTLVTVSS VL: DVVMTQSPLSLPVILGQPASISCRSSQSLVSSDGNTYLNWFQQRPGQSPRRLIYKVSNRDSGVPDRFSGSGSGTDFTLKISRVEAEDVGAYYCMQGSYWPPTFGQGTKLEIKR: 1.66
- H4H13538P (antibody, human IgG4 S228P, kappa, V domains shown, fully human anti-IL2Rgamma mAb, human IgG4 Fc) VH: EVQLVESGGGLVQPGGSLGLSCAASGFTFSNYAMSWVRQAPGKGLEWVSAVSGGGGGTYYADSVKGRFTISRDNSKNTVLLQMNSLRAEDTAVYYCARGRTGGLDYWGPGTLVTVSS VL: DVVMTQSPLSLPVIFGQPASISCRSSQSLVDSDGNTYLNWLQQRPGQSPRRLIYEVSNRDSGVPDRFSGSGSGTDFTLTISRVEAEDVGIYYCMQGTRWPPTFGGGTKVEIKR: 1.79
- H4H12871P (antibody, human IgG4 S228P, kappa, V domains shown, fully human anti-IL2Rgamma mAb, human IgG4 Fc; also called REGN9434) VH: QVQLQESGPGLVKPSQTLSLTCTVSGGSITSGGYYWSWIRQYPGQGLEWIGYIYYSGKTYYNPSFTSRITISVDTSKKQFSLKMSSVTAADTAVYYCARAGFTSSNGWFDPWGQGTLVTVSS VL: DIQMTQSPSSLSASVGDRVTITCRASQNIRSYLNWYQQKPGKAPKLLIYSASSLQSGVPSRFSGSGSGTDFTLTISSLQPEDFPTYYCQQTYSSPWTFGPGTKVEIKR: 2.68
